- assaySystem: Bcl-xL (Homo sapiens, UniProt Q07817)
- Construct: Measured levels of Bcl-xL protein of HCT116 cells treated with the tested compounds; host or cells: HCT116
- Sequence (Q07817 whole entry): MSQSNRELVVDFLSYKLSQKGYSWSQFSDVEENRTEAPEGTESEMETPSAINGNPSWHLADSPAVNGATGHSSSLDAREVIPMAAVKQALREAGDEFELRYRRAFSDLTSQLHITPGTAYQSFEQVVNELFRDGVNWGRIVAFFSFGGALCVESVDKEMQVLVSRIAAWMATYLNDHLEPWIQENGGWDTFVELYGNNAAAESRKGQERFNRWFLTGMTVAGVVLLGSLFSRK
- experimentalDetails: HCT116 Bcl-xL degradation, capillary-based immunoassay (WES)
- Assay type: cell-based
- runParameters: HCT116, 24 h, 9-point serial dilution
Lab note - cut at 1 nM for DC50: 1 if strictly below, 0 if not.

Worked examples, 4 compounds total:
{"columns": ["compound", "className"],
 "data": [
  ["Cc1ncsc1-c1ccc([C@H](C)NC(=O)[C@@H]2C[C@@H](O)CN2C(=O)[C@@H](NC(=O)CCOCCCCCCN(C)CCOC23CC4(C)CC(C)(CC(Cn5ncc(-c6ccc(N7CCCc8c7nnc(Nc7nc9ccccc9s7)c8C)nc6C(=O)O)c5C)(C4)C2)C3)C(C)(C)C)cc1 [Example 108]", 0],
  ["Cc1cc(N(CCCCCn2cc(CCCCCCCNC(=O)COc3cccc4c3C(=O)N(C3CCC(=O)NC3=O)C4=O)nn2)c2ccc(-c3cnn(CC45CC6(C)CC(C)(C4)CC(OCCN(C)C)(C6)C5)c3C)c(C(=O)O)n2)nnc1Nc1nc2ccccc2s1 (stereo not shown) [Example 64]", 0],
  ["CN[C@@H](C)C(=O)N[C@H](C(=O)N1CCC[C@H]1c1nc(C(=O)c2cccc(OCCCCCCCCN(C)CCOC34CC5(C)CC(C)(CC(Cn6ncc(-c7ccc(N8CCCc9c8nnc(Nc8nc%10ccccc%10s8)c9C)nc7C(=O)O)c6C)(C5)C3)C4)c2)cs1)C1CCCCC1 [Example 97]", 1],
  ["Cc1cc(N(CCCCN(C)C(=O)CCCCCCCCCCCC(=O)N[C@H](C(=O)N2C[C@H](O)C[C@H]2C(=O)N[C@@H](C)c2ccc(-c3scnc3C)cc2)C(C)(C)C)c2ccc(-c3cnn(C[C@]45C[C@]6(C)C[C@](C)(C4)C[C@@](OCCN(C)C)(C6)C5)c3C)c(C(=O)O)n2)nnc1Nc1nc2ccccc2s1 [Example 121]", 0]
]}

Could you now look at the following compound, please?
QUERY: # check: DC50 < 1 nM for Cc1cc(N(CCCCCn2cc(CCCCCCCNc3cccc4c3C(=O)N(C3CCC(=O)NC3=O)C4=O)nn2)c2ccc(-c3cnn(CC45CC6(C)CC(C)(C4)CC(OCCN(C)C)(C6)C5)c3C)c(C(=O)O)n2)nnc1Nc1nc2ccccc2s1 (stereo not shown) [Example 150]
RESULT: 0
